The reported measurements were obtained from PubChem BioAssay AID1159580.

Experiment Notes: chemical genetic growth profiling, strain panel (AID 1159580);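 also: tested at 20 µM; growth read once vehicle control cultures reached saturation at 30 °C; lower values mean less growth of the strain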
Test Parameters: S. cerevisiae deletion strains, growth OD, locus YHR129C, strain ARP1
Hit rate of the full screen: of about 5,500 compounds, about 2,000 (36%) were called active. Another 18% or so got no clear call; they are omitted. Rule as the data show it: active = normalized growth mostly below about 0.91 (no sharp cut-off); inconclusive = no clear call, values can overlap the other calls; inactive = mostly above about 0.92. The list shows a part of the results.
Outcomes: active, inactive

Compound	Discrete Label
CCC1(CC)C(=O)C=CNC1=O	inactive
Cc1cc(C(C)(C)C)cc(C)c1CC1=NCCN1	inactive
CCc1cccc2c3c([nH]c12)C(CC)(CC(=O)O)OCC3 (stereo not given)	inactive
O=C(O)[C@H](O)[C@@](O)(Cc1ccc(O)cc1)C(=O)O	inactive
CCOC([O-])=Nc1c[n+](N2CCOCC2)no1	inactive
COc1ccc(C(=O)O)c(O)c1OC	inactive
Cc1cc(C(C)(C)C)c(O)c(C)c1CC1=NCCN1	inactive
COc1ccc(C(=O)c2ccc(O)cc2)c(O)c1O	inactive
CCOc1ccc(C(=O)c2ccc(O)c(O)c2O)cc1	active
CC(=O)OC1CCC2(C)C3CC(=O)C4(C)C(CC5OC6(CCC(C)CO6)[C@@H](C)C54)C3CC[C@H]2C1 (stereo not given in full)	inactive
CC(NCCC(c1ccccc1)c1ccccc1)c1ccccc1 (stereo not given)	inactive
O=C(O)c1cc(=O)c2c(Cl)cc(Cl)cc2[nH]1	inactive
NC(N)=NC(N)=Nc1ccccc1	inactive
CC(=O)O[C@@H]1CC[C@]2(C)C3CC[C@]4(C)C(=O)CCC4C3CC[C@H]2C1 (stereo not given in full)	inactive
Cc1c(NC(=O)c2cccnc2)c(=O)n(-c2ccccc2)n1C	inactive
CC1=C(O)C(=O)C=C2C1=CC=C1[C@@]2(C)CC[C@@]2(C)[C@@H]3C[C@](C)(C(=O)O)CC[C@]3(C)CC[C@]12C	active
CC(=O)O[C@H]1CC[C@]2(C)C3CC[C@@]4(C)C(CC5O[C@@]6(CCC(C)CO6)[C@@H](C)C54)C3CC[C@H]2C1 (stereo not given in full)	inactive
CC(=O)Oc1cc2c(c(C)c1OC(C)=O)CC1OC13C2(C)CCC1(C)C2CC(C)(C(=O)O)CCC2(C)CCC13C (stereo not given)	inactive
CC(=O)OCC(=O)[C@@]1(O)CCC2C3CC[C@@H]4C[C@H](OC(C)=O)CC[C@]4(C)C3C(=O)C[C@@]21C (stereo not given in full)	inactive
COC1(C)CCC2OC2(C)CCC2C1CC2(C)C (stereo not given)	inactive
